From: PubChem BioAssay (NCI)

test system: HCC-2998 colon; assay: NCI tumour cell line growth inhibition, 48 h
This section presents molecules with their documented TGI values.

CN1CC(C(=O)C2C(=O)c3ccccc3C2=O)C(=O)C(=O)C(C(=O)C2C(=O)c3ccccc3C2=O)C1 (stereo unspecified)	> 100 µM
O=c1c(C=Nc2ccc([N+](=O)[O-])cc2)c(O)n(-c2ccccc2)c(=O)n1-c1ccccc1	> 100 µM
COc1ccccc1/C=N\N=C(N/N=C/c1ccccc1OC)N/N=C/c1ccccc1OC	> 100 µM
O=c1[nH]nc(-c2ccccc2)n1/N=C/c1c(O)ccc2ccccc12	> 100 µM
C#Cc1c(C(N)=O)ncn1C1OC(COP(=O)(OCc2ccc([N+](=O)[O-])o2)N(C)CCCCCl)C(O)C1O (stereo unspecified)	> 100 µM
Cc1cc(S(=O)(=O)O)c(NC(=O)C(=O)C2C=CCS2(=O)=O)cc1Cl (stereo unspecified)	> 100 µM

q: Reported TGI, molecule Cc1ccc2c(c1)NC(=O)CC(c1ccccc1)=N2 : ____
a: > 100 µM

q: For O=C(CCCCCCCCC(=O)N1C(=O)CC(=O)N(c2cccc(Cl)c2)C1=S)N1C(=O)CC(=O)N(c2cccc(Cl)c2)C1=S , what is its reported TGI?
a: > 100 µM

q: What does the data say about its TGI? Entry: COc1cc(CC2c3cc(OC)c(OC)cc3CCN2C)c(Oc2cc3c(cc2OC)-c2c(O)c(OC)cc4c2C(C3)N(C)CC4)cc1OC (stereo unspecified)
a: 31 µM

q: What measured TGI goes with COc1ccccc1NC(=O)C1=C(C)NC(C)=C(C(=O)Nc2ccccc2OC)C1c1ccc(C)cc1 ?
a: > 100 µM

q: TGI for COC(=O)C1(F)C(=O)NC(=O)NC1O (stereo unspecified) ?
a: > 100 µM

q: For the molecule shown here, O=C1Cc2c([nH]c3ccc(Br)cc23)-c2ccccc2N1 , give the reported TGI.
a: > 100 µM

q: For COC(=O)/C=C1\CCC(C)(C(=O)NS(=O)(=O)c2ccc(C)cc2)C1(C)C (stereo unspecified) , what is its reported TGI?
a: > 100 µM

q: I have this molecule here, CCOC(=O)C(=Cc1ccc(C(=O)OC)cc1)C(=O)OCC , and I need its recorded TGI.
a: 12.1 µM

q: Fill blank: measured TGI of the molecule CSC1=C(C#N)C(=O)N(c2ccc(C)cc2)C(=S)C1C#N (stereo unspecified) is ____.
a: > 100 µM

q: Field request: TGI | item: CN1CCN(Cc2ccc(NC(=O)c3ccc(C#Cc4c(N)ncc5ccc(F)cc45)cc3)cc2C(F)(F)F)CC1
a: 1.62 µM
